- System: MDA-N
- test_description: NCI tumour cell line growth inhibition, 48 h
measurement_name: TGI (µM)
Answers are plain numbers, in µM.

Consider the following illustrative entries.
molecule	reported_measurement
O=c1oc2ccccc2c(O)c1C(c1ccco1)c1c(O)c2ccccc2oc1=O	44.9
CCCCC(=O)Nc1ccc2cc(C(=O)OC)c(ON3C(=O)c4ccccc4C3=O)nc2n1	80.7
O=C1NC(Cc2c[nH]c3ccccc23)C(=O)N2C(C3CCCCC3)c3[nH]c4ccccc4c3C[C@@H]12 (stereo partly drawn)	25.2

Please supply TGI for each of the following items, keeping them in order.
1. COc1ccc(/C=C2\C[C@H]3[C@@H]4CCC5=C[C@@H](N6CCCC6)CC[C@]5(C)[C@H]4CC[C@]3(C)[C@H]2O)cc1
2. Cc1cccc2c1Oc1cc(Cl)ccc1C2NC(=O)CCN1CCN(CCO)CC1 (stereo not drawn)
3. O=P(Oc1ccccc1)(Oc1ccccc1)Oc1c[nH]c2ccccc12

Response:
[3.73, 14.6, 24.3]

Please supply TGI for each of the following items, keeping them in order.
1. CC(C)(C)c1nc2c(o1)C(=O)c1ccccc1C2=O
2. COC(=O)C1(Cc2ccc3c(c2)CCC3)Cc2ccc3c(c2C1O)CCC3 (stereo not drawn)

Response:
0.367
29.8
